# test: Antiproliferative activity against human BxPC3 cells assessed as cell growth at 10 uM after 72 hrs by CellTitre assay relative to control
# Type: functional
# test context: BXPC-3, 72 h, read-out: Activity
result type: growth at 10 µM (%)
Expressed in %, but write only the number.

Below, 5 compounds whose answers are already recorded.
CN(C)C[C@@H]1C(=O)O[C@H](c2ccccc2)[C@@H]1c1ccccc1 (racemic) :: 1
O=C1O[C@@H](c2ccccc2)[C@H](c2ccccc2)[C@H]1CN1CCCCC1 (racemic) :: 1
C=C1C(=O)O[C@H](c2ccccc2)[C@@H]1c1ccccc1 (racemic) :: 8
O=C1O[C@H](c2ccccc2)[C@H](c2ccccc2)[C@@H]1CN1CCCCC1 (racemic) :: 3
O=C1O[C@H](c2ccccc2)[C@H](c2ccccc2)[C@@H]1CN(Cc1ccccc1)Cc1ccccc1 (racemic) :: 34

Noted for CN(C)C[C@H]1C(=O)O[C@@H](c2ccccc2)[C@@H]1c1ccccc1 (racemic) : its growth at 10 µM reads 0

Noted for O=C1O[C@@H](c2ccccc2)[C@H](c2ccccc2)[C@H]1CN1CCCC1 (racemic) : its growth at 10 µM reads 0

Noted for O=C1O[C@H](c2ccccc2)[C@H](c2ccccc2)[C@@H]1CN1CCCC1 (racemic) : its growth at 10 µM reads 0

Noted for O=C1O[C@@H](c2ccccc2)[C@H](c2ccccc2)[C@H]1CN1CCOCC1 (racemic) : its growth at 10 µM reads 9
